Target: T1, human EphA4 (Homo sapiens, UniProt P54764)
T1 construct: made in house; not restated for the human SEAP-His protein
T1 sequence (P54764 20-547): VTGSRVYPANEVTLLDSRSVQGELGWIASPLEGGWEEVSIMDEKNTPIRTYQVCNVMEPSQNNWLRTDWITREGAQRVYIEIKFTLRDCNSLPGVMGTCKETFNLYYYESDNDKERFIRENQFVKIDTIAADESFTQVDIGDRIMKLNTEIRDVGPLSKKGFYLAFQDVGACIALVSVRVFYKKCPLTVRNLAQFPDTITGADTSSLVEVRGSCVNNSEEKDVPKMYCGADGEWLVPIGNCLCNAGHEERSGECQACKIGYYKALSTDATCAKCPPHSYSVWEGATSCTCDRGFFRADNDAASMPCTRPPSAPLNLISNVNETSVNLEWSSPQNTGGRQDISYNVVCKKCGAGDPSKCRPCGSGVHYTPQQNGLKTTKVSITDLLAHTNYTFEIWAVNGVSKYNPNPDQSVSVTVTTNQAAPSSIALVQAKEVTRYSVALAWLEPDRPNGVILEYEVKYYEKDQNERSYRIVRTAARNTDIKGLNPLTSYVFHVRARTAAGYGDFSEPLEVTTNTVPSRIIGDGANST
Assay: Affinity of humanized antibodies by SPR (Biacore T200)
Assay type: binding
Conditions: human EphA4 extracellular region-SEAP-His; 1:1 binding model
Parameter: ka. Scope: all listed entries.
recorded-endpoint: ka (M⁻¹ s⁻¹)

molecule="157 (antibody, V domains shown, synthetic humanized antibody heavy chain variable region sequence; synthetic humanized antibody light chain variable region sequence) VH: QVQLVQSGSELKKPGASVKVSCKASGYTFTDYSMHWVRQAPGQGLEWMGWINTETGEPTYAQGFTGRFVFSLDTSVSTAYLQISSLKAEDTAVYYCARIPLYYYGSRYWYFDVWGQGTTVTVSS VL: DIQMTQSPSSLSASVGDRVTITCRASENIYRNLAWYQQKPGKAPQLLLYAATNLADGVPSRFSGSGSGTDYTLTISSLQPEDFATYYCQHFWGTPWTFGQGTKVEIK" unit_descriptor="M⁻¹ s⁻¹" test_value=350000
molecule="158 (antibody, V domains shown, synthetic humanized antibody heavy chain variable region sequence; synthetic humanized antibody light chain variable region sequence) VH: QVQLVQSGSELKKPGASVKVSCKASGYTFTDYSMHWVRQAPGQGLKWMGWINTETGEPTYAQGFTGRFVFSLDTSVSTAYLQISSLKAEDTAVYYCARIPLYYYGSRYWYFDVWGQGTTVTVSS VL: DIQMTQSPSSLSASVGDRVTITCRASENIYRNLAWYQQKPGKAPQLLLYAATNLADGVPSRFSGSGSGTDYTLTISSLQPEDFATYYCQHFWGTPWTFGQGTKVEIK" unit_descriptor="M⁻¹ s⁻¹" test_value=310000
